Tested on: NRG-mice bearing LNCaP tumors
Assay: Biodistribution (and PET/SPECT imaging) in NRG-mice bearing LNCaP tumors
Type: in vivo
Details: 24 h p.i., Avg
*1 amine or outer side, *2 acyl side, *3 side chain or, on linkers, in order; H or OH if unused. Where a SMILES comes first, the peptide text is derived from it. [ ]: non-standard residue; d: D form. The star is where a group is joined. ξ: configuration not given here. ξLys(Nα-CO-ξAad) = O=C(O)CCCC(NC(=O)NC(CCCCN*)C(=O)O)C(=O)O; Butanoyl(4-(4-NO2Ph)) = O=C(CCCc1ccc([N+](=O)[O-])cc1)*; DOTA = O=C(O)CN1CCN(CC(=O)O)CCN(CC(=O)*)CCN(CC(=O)O)CC1; Butanoyl(4-(4-MeO-phenyl)) = COc1ccc(CCCC(=O)*)cc1; ξAla(9-anthryl) = NC(Cc1c2ccccc2cc2ccccc12)C(=O)O; X2 = O=C(NC(CCCCN*)C(=O)O)NC(CC(F)C(=O)O)C(=O)O; X1 = O=C(C1CCC(CN[*:1])CC1)[*:2]; ξK = NCCCCC(N)C(=O)O
measuredQuantity: Biodistribution: Lacrimal gland (% ID/g)
The reply should be a number in % ID/g, with the unit left off.

Input: // output Biodistribution: Lacrimal gland; input O=C([O-])CN1CCN(CC(=O)[O-])CCN(CC(=O)NCCCCC(NC(=O)CNC(=O)CCCc2ccc([N+](=O)[O-])cc2)C(=O)NCC(=O)NCC2CCC(C(=O)NC(Cc3c4ccccc4cc4ccccc34)C(=O)NCCCCC(NC(=O)NC(CCCC(=O)O)C(=O)O)C(=O)O)CC2)CCN(CC(=O)[O-])CC1.[225Ac+3] (stereo not shown) [^225Ac-CCZ02017] ({Butanoyl(4-(4-NO2Ph))}-G[ξK](DOTA)G[X1][ξAla(9-anthryl)]-{ξLys(Nα-CO-ξAad)}) ; system NRG-mice bearing LNCaP tumors
Output: 0.32

Input: Tell me Biodistribution: Lacrimal gland of O=C([O-])CN1CCN(CC(=O)[O-])CCN(CC(=O)NCCCCC(NC(=O)CNC(=O)CCCc2ccc([N+](=O)[O-])cc2)C(=O)NCC(=O)NCC2CCC(C(=O)NC(Cc3c4ccccc4cc4ccccc34)C(=O)NCCCCC(NC(=O)NC(CCCC(=O)O)C(=O)O)C(=O)O)CC2)CCN(CC(=O)[O-])CC1.[177Lu+3] (stereo not shown) [^177Lu-CCZ02017] ({Butanoyl(4-(4-NO2Ph))}-G[ξK](DOTA)G[X1][ξAla(9-anthryl)]-{ξLys(Nα-CO-ξAad)}) when tested on NRG-mice bearing LNCaP tumors.
Output: 0.04

Input: Quote Biodistribution: Lacrimal gland with test system NRG-mice bearing LNCaP tumors for COc1ccc(CCCC(=O)NCC(=O)NC(CCCCNC(=O)CN2CCN(CC(=O)[O-])CCN(CC(=O)[O-])CCN(CC(=O)[O-])CC2)C(=O)NCC(=O)NCC2CCC(C(=O)NC(Cc3c4ccccc4cc4ccccc34)C(=O)NCCCCC(NC(=O)NC(CC(F)C(=O)O)C(=O)O)C(=O)O)CC2)cc1.[177Lu+3] (stereo not shown) [^177Lu-CCZ02008] ({Butanoyl(4-(4-MeO-phenyl))}-G[ξK](DOTA)G[X1][ξAla(9-anthryl)]-X2)
Output: 0.12

Input: Give Biodistribution: Lacrimal gland; test system NRG-mice bearing LNCaP tumors; molecule COc1ccc(CCCC(=O)NCC(=O)NC(CCCCNC(=O)CN2CCN(CC(=O)[O-])CCN(CC(=O)[O-])CCN(CC(=O)[O-])CC2)CC(=O)NCC2CCC(C(=O)NC(Cc3c4ccccc4cc4ccccc34)C(=O)NCCCCC(NC(=O)NC(CC(F)C(=O)O)C(=O)O)C(=O)O)CC2)cc1.[177Lu+3] (stereo not shown) [^177Lu-CCZ02019]
Output: 0.00

----------
So I've got a bunch of compounds here, and I need their Biodistribution: Lungs values.
Tested on: NRG-mice bearing LNCaP tumors
Assay: Biodistribution (and PET/SPECT imaging) in NRG-mice bearing LNCaP tumors
Assay type: in vivo
Conditions: 72 h p.i., Avg
Description: LNCaP cell line was obtained from ATCC (LNCaP clone FGC, CRL-1740). It was established from a metastatic site of left supraclavicular lymph node of human prostatic adenocarcinoma. […] The collected cells number was counted with a Hausser Scientific (Horsham, PA) Hemacytometer. […] PET imaging experiments were conducted using Siemens Inveon micro PET/CT scanner. […] Then, a 10-min static PET imaging or a one hour (30 min×2 frames) of static SPECT scan was performed to determined uptake in tumor and other organs. […]
*1 amine or outer side, *2 acyl side, *3 side chain or, on linkers, in order; H or OH if unused. Where a SMILES comes first, the peptide text is derived from it. [ ]: non-standard residue; d: D form. The star is where a group is joined. ξ: configuration not given here. ξLys(Nα-CO-ξAad) = O=C(O)CCCC(NC(=O)NC(CCCCN*)C(=O)O)C(=O)O; Butanoyl(4-(4-NO2Ph)) = O=C(CCCc1ccc([N+](=O)[O-])cc1)*; DOTA = O=C(O)CN1CCN(CC(=O)O)CCN(CC(=O)*)CCN(CC(=O)O)CC1; Butanoyl(4-(4-MeO-phenyl)) = COc1ccc(CCCC(=O)*)cc1; ξAla(9-anthryl) = NC(Cc1c2ccccc2cc2ccccc12)C(=O)O; X2 = O=C(NC(CCCCN*)C(=O)O)NC(CC(F)C(=O)O)C(=O)O; X1 = O=C(C1CCC(CN[*:1])CC1)[*:2]; ξK = NCCCCC(N)C(=O)O
Quick reminder: number only, in % ID/g, skip the unit.

Input: Indicate its recorded Biodistribution: Lungs; the compound in question is COc1ccc(CCCC(=O)NCC(=O)NC(CCCCNC(=O)CN2CCN(CC(=O)[O-])CCN(CC(=O)[O-])CCN(CC(=O)[O-])CC2)CC(=O)NCC2CCC(C(=O)NC(Cc3c4ccccc4cc4ccccc34)C(=O)NCCCCC(NC(=O)NC(CC(F)C(=O)O)C(=O)O)C(=O)O)CC2)cc1.[177Lu+3] (stereo not shown) [^177Lu-CCZ02019]
Output: 0.41

Input: Give the reported Biodistribution: Lungs for this compound. O=C([O-])CN1CCN(CC(=O)[O-])CCN(CC(=O)NCCCCC(NC(=O)CNC(=O)CCCc2ccc([N+](=O)[O-])cc2)C(=O)NCC(=O)NCC2CCC(C(=O)NC(Cc3c4ccccc4cc4ccccc34)C(=O)NCCCCC(NC(=O)NC(CCCC(=O)O)C(=O)O)C(=O)O)CC2)CCN(CC(=O)[O-])CC1.[225Ac+3] (stereo not shown) [^225Ac-CCZ02017] ({Butanoyl(4-(4-NO2Ph))}-G[ξK](DOTA)G[X1][ξAla(9-anthryl)]-{ξLys(Nα-CO-ξAad)})
Output: 0.19

Input: Hello, please tell me recorded Biodistribution: Lungs for this one: COc1ccc(CCCC(=O)NCC(=O)NC(CCCCNC(=O)CN2CCN(CC(=O)[O-])CCN(CC(=O)[O-])CCN(CC(=O)[O-])CC2)C(=O)NCC(=O)NCC2CCC(C(=O)NC(Cc3c4ccccc4cc4ccccc34)C(=O)NCCCCC(NC(=O)NC(CC(F)C(=O)O)C(=O)O)C(=O)O)CC2)cc1.[177Lu+3] (stereo not shown) [^177Lu-CCZ02008] ({Butanoyl(4-(4-MeO-phenyl))}-G[ξK](DOTA)G[X1][ξAla(9-anthryl)]-X2)
Output: 0.69

Input: Please give measured Biodistribution: Lungs of the following entry: O=C([O-])CN1CCN(CC(=O)[O-])CCN(CC(=O)NCCCCC(NC(=O)CNC(=O)CCCc2ccc([N+](=O)[O-])cc2)C(=O)NCC(=O)NCC2CCC(C(=O)NC(Cc3c4ccccc4cc4ccccc34)C(=O)NCCCCC(NC(=O)NC(CCCC(=O)O)C(=O)O)C(=O)O)CC2)CCN(CC(=O)[O-])CC1.[177Lu+3] (stereo not shown) [^177Lu-CCZ02017] ({Butanoyl(4-(4-NO2Ph))}-G[ξK](DOTA)G[X1][ξAla(9-anthryl)]-{ξLys(Nα-CO-ξAad)})
Output: 0.16

----------
Test system: NRG-mice bearing LNCaP tumors
Assay: Biodistribution (and PET/SPECT imaging) in NRG-mice bearing LNCaP tumors
Format: in vivo
Settings: 3 h p.i., Avg
*1 amine or outer side, *2 acyl side, *3 side chain or, on linkers, in order; H or OH if unused. Where a SMILES comes first, the peptide text is derived from it. [ ]: non-standard residue; d: D form. The star is where a group is joined. ξ: configuration not given here. ξLys(Nα-CO-ξAad) = O=C(O)CCCC(NC(=O)NC(CCCCN*)C(=O)O)C(=O)O; Butanoyl(4-(4-NO2Ph)) = O=C(CCCc1ccc([N+](=O)[O-])cc1)*; DOTA = O=C(O)CN1CCN(CC(=O)O)CCN(CC(=O)*)CCN(CC(=O)O)CC1; Butanoyl(4-(4-MeO-phenyl)) = COc1ccc(CCCC(=O)*)cc1; ξAla(9-anthryl) = NC(Cc1c2ccccc2cc2ccccc12)C(=O)O; X2 = O=C(NC(CCCCN*)C(=O)O)NC(CC(F)C(=O)O)C(=O)O; X1 = O=C(C1CCC(CN[*:1])CC1)[*:2]; ξK = NCCCCC(N)C(=O)O
With a cut-off of 1 % ID/g, any Biodistribution: Bone strictly below it is called true (1); any Biodistribution: Bone meeting it or above is called false (0).

Input: Here's an entry: COc1ccc(CCCC(=O)NCC(=O)NC(CCCCNC(=O)CN2CCN(CC(=O)[O-])CCN(CC(=O)[O-])CCN(CC(=O)[O-])CC2)CC(=O)NCC2CCC(C(=O)NC(Cc3c4ccccc4cc4ccccc34)C(=O)NCCCCC(NC(=O)NC(CC(F)C(=O)O)C(=O)O)C(=O)O)CC2)cc1.[177Lu+3] (stereo not drawn) [^177Lu-CCZ02019] . Is its Biodistribution: Bone below 1 % ID/g?
Output: false (0)

Input: hey, is Biodistribution: Bone for O=C([O-])CN1CCN(CC(=O)[O-])CCN(CC(=O)NCCCCC(NC(=O)CNC(=O)CCCc2ccc([N+](=O)[O-])cc2)C(=O)NCC(=O)NCC2CCC(C(=O)NC(Cc3c4ccccc4cc4ccccc34)C(=O)NCCCCC(NC(=O)NC(CCCC(=O)O)C(=O)O)C(=O)O)CC2)CCN(CC(=O)[O-])CC1.[225Ac+3] (stereo not drawn) [^225Ac-CCZ02017] ({Butanoyl(4-(4-NO2Ph))}-G[ξK](DOTA)G[X1][ξAla(9-anthryl)]-{ξLys(Nα-CO-ξAad)}) lower than 1 % ID/g or not?
Output: false (0)

Input: Identify whether the compound O=C([O-])CN1CCN(CC(=O)[O-])CCN(CC(=O)NCCCCC(NC(=O)CNC(=O)CCCc2ccc([N+](=O)[O-])cc2)C(=O)NCC(=O)NCC2CCC(C(=O)NC(Cc3c4ccccc4cc4ccccc34)C(=O)NCCCCC(NC(=O)NC(CC(F)C(=O)O)C(=O)O)C(=O)O)CC2)CCN(CC(=O)[O-])CC1.[68Ga+3] (stereo not drawn) [^68Ga-CCZ02025] ({Butanoyl(4-(4-NO2Ph))}-G[ξK](DOTA)G[X1][ξAla(9-anthryl)]-X2) records Biodistribution: Bone below 1 % ID/g.
Output: false (0)

Input: is_below(Biodistribution: Bone, 1 % ID/g) for O=C([O-])CN1CCN(CC(=O)[O-])CCN(CC(=O)NCCCCC(NC(=O)CNC(=O)CCCc2ccc([N+](=O)[O-])cc2)C(=O)NCC(=O)NCC2CCC(C(=O)NC(Cc3c4ccccc4cc4ccccc34)C(=O)NCCCCC(NC(=O)NC(CCCC(=O)O)C(=O)O)C(=O)O)CC2)CCN(CC(=O)[O-])CC1.[177Lu+3] (stereo not drawn) [^177Lu-CCZ02017] ({Butanoyl(4-(4-NO2Ph))}-G[ξK](DOTA)G[X1][ξAla(9-anthryl)]-{ξLys(Nα-CO-ξAad)}) ?
Output: true (1)

Input: Quick check: does COc1ccc(CCCC(=O)NCC(=O)NC(CCCCNC(=O)CN2CCN(CC(=O)[O-])CCN(CC(=O)[O-])CCN(CC(=O)[O-])CC2)CC(=O)NCC2CCC(C(=O)NC(Cc3c4ccccc4cc4ccccc34)C(=O)NCCCCC(NC(=O)NC(CCCC(=O)O)C(=O)O)C(=O)O)CC2)cc1.[68Ga+3] (stereo not drawn) [^68Ga-CCZ02015] have Biodistribution: Bone under 1 % ID/g?
Output: false (0)

Input: is_below(Biodistribution: Bone, 1 % ID/g) for COc1ccc(CCCC(=O)NCC(=O)NC(CCCCNC(=O)CN2CCN(CC(=O)[O-])CCN(CC(=O)[O-])CCN(CC(=O)[O-])CC2)C(=O)NCC(=O)NCC2CCC(C(=O)NC(Cc3c4ccccc4cc4ccccc34)C(=O)NCCCCC(NC(=O)NC(CCCC(=O)O)C(=O)O)C(=O)O)CC2)cc1.[68Ga+3] (stereo not drawn) [^68Ga-CCZ02009] ({Butanoyl(4-(4-MeO-phenyl))}-G[ξK](DOTA)G[X1][ξAla(9-anthryl)]-{ξLys(Nα-CO-ξAad)}) ?
Output: false (0)

Origin of values: patent US20250186627A1
